The values you see were collected from patent US20240174763A1.

Target: T1, human CD73 on SK-OV-3 cells (human ovarian adenocarcinoma cells) (human, UniProt P21589 27-549)
T1 construct: whole, on cells; also called human CD73 positive cells
T1 sequence (looked up): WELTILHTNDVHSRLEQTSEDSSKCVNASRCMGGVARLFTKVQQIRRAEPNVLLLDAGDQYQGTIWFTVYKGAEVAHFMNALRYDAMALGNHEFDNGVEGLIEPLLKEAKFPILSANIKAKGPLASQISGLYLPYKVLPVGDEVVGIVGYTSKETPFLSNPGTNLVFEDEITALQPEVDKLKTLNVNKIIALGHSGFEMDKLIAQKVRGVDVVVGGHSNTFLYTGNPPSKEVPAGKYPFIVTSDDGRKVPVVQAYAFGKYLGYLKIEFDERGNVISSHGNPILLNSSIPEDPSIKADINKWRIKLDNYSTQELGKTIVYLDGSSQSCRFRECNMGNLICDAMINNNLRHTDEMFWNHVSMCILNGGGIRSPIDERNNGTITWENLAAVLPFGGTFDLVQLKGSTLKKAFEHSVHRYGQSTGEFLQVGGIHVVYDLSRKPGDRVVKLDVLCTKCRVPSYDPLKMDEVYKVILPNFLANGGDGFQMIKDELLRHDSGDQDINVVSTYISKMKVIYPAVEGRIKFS
Experiment: flow cytometry on SK-OV-3 cells, anti-hFc-APC
recordedEndpoint: EC50 (read off the curve)

humanized CQ137 monoclonal antibody (137-9) (antibody, V domains shown) VH: QVQLVQSGAEVKKPGSSVKVSCKASGYSFTGYYIHWVRQAPGQGLEWMGRINPYNGATTYNQNFKDRVTITVDKSTSTAYMELSSLRSEDTAVYYCARFHYGAPDLWGQGTLVTVSS VL: DIQMTQSPSSLSASVGDRVTITCKASQDINTYLTWYQQKPGKAPKTLIYRANILVDGVPSRFSGSGSGTDFTLTISSLQPEDFATYYCLQYDAFPLTFGGGTKVEIKR: ~30 ng/mL
humanized CQ137 monoclonal antibody (137-6) (antibody, V domains shown) VH: QVQLVQSGAEVKKPGSSVKVSCKASGYSFTGYYIHWVRQAPGQGLEWMGRINPYNGATTYNQNFKDRVTITVDKSTSTAYMELSSLRSEDTAVYYCARFHYGAPEYWGQGTLVTVSS VL: DIQMTQSPSSLSASVGDRVTITCKASQDINTYLTWYQQKPGKAPKTLIYRANILVDGVPSRFSGSGSGTDFTLTISSLQPEDFATYYCLQYAEFPLTFGGGTKVEIKR: ~4 ng/mL
humanized CQ137 monoclonal antibody (137-8) (antibody, V domains shown) VH: QVQLVQSGAEVKKPGSSVKVSCKASGYSFTGYYIHWVRQAPGQGLEWMGRINPYNGATTYNQNFKDRVTITVDKSTSTAYMELSSLRSEDTAVYYCARFHYGAPDFWGQGTLVTVSS VL: DIQMTQSPSSLSASVGDRVTITCKASQDINTYLTWYQQKPGKAPKTLIYRANILVDGVPSRFSGSGSGTDFTLTISSLQPEDFATYYCLQYDQFPLTFGGGTKVEIKR: ~5 ng/mL
humanized CQ137 monoclonal antibody (137-4) (antibody, V domains shown) VH: QVQLVQSGAEVKKPGSSVKVSCKASGYSFTGYYIHWVRQAPGQGLEWMGRINPYNGATTYNQNFKDRVTITVDKSTSTAYMELSSLRSEDTAVYYCARFHYGAVDYWGQGTLVTVSS VL: DIQMTQSPSSLSASVGDRVTITCKASQDINTYLTWYQQKPGKAPKTLIYRANILVDGVPSRFSGSGSGTDFTLTISSLQPEDFATYYCLQYEEFPLTFGGGTKVEIKR: ~3 ng/mL

// field: EC50 (read off the curve); key: humanized CQ137 monoclonal antibody (137-5) (antibody, V domains shown) VH: QVQLVQSGAEVKKPGSSVKVSCKASGYSFTGYYIHWVRQAPGQGLEWMGRINPYNGATTYNQNFKDRVTITVDKSTSTAYMELSSLRSEDTAVYYCARFHYGAADYWGQGTLVTVSS VL: DIQMTQSPSSLSASVGDRVTITCKASQDINTYLTWYQQKPGKAPKTLIYRANILVDGVPSRFSGSGSGTDFTLTISSLQPEDFATYYCLQYNEFPLTFGGGTKVEIKR ; value = ~20 ng/mL
